This section lists GI50 readings for SF-539 CNS.

Some compounds with recorded GI50:
> print(dat)
                                 smilescode  measurementkind  recordedmeasurement
1  Cc1ccc(-c2c3c(nn2-c2ccc(S(=O)(=O)NC(=O)Nc4ccccc4)cc2)-c2ccccc2C3)cc1             GI50              18.2 µM
2  C[C@]12CC[C@@H]3c4ccc(O)cc4CC[C@H]3[C@@H]1CC[C@@H]2NS(=O)(=O)c1cccc(OC(F)(F)F)c1             GI50              1.69 µM
3  CCC[CH2][Sn]1([CH2]CCC)[O]CC(c2ccccn2)C[O]1             GI50              18.6 µM

Now let's try a different one.
GI50 on SF-539 CNS for Cc1cc2nc3c4cc(C=O)ccc4n(CCN(C)C)c3nc2cc1C is 1.51 µM

---

Tested on: NCI-H460 lung
Assay: NCI tumour cell line growth inhibition, 48 h
TGI reference

Please review the following examples before continuing.
> print(dat)
                                   compound         system  measurementkind  recordedmeasurement
1  C[C@]12CC[C@@H]3c4ccc(O)cc4CC[C@H]3[C@@H]1CC[C@@H]2NS(=O)(=O)c1cccc(OC(F)(F)F)c1  NCI-H460 lung              TGI              3.71 µM
2  CCCCSC(=CC(=O)c1cccc(C(=O)C=C(SCCCC)SCCCC)n1)SCCCC  NCI-H460 lung              TGI             > 100 µM
3  CC(=O)c1c(SCCN2CCCCCC2)n(-c2ccccc2)c(=S)n(-c2ccccc2)c1=O  NCI-H460 lung              TGI            > 54.4 µM

Clc1ccc(-c2ccc(CNCC3CCNCC3)o2)c(-c2ccccc2)c1 on NCI-H460 lung gives TGI = 3.33 µM

Entry CC(=O)N1CCN([C@H]2CCC[C@@H](NC(=O)c3cc4c(F)ccc(C)c4[nH]3)C2)CC1 under NCI-H460 lung had TGI of > 100 µM

Let me check: COc1ccc([C@H]2[C@H](C)C3=Nc4ccccc4CN32)cc1 , system NCI-H460 lung, measured TGI is > 100 µM

The compound O=S(=O)(c1ccccc1)[C@H]1[C@@H]2O[C@@H]2C[C@@H]1O on NCI-H460 lung: TGI was > 100 µM

// returns TGI for O=C(O)c1ccc(C=C2Sc3ccccc3S2)cc1 with NCI-H460 lung; value = > 100 µM

Record O=C1NC(c2cccc3ccccc23)Nc2ccc(O)cc21 (stereo not given) has NCI-H460 lung TGI equal to 69.5 µM

Given the compound CCOC(=O)c1sc2nc(SC)nc(Nc3ccc4c(c3)OCO4)c2c1N and test system NCI-H460 lung, the measured TGI is > 100 µM

---

// reported TGI for each item listed
Test system: CCRF-CEM leukemia
Test: NCI tumour cell line growth inhibition, 48 h
Where a SMILES comes first, the peptide text is derived from it. [ ]: non-standard residue; d: D form. The star is where a group is joined. Nle = CCCC[C@H](N)C(=O)O; Cbz = O=C(OCc1ccccc1)*

# example entries with known answers
molecule	recordedMeasurement
CC(=O)Oc1ccc(/C=C/C(=O)NCC(NC(=O)/C=C/c2ccc(OC(C)=O)c(OC(C)=O)c2)C(=O)O)cc1OC(C)=O (configuration not stated)	> 100 µM
Clc1ccc(-c2ccc(CNCC3CCNCC3)o2)c(-c2ccccc2)c1	2.31 µM
CC(=O)N1CCN([C@H]2CCC[C@@H](NC(=O)c3cc4c(F)ccc(C)c4[nH]3)C2)CC1	> 100 µM
CCCC[C@@H](C=O)NC(=O)[C@H](CC(C)C)NC(=O)[C@H](CC(C)C)NC(=O)OCc1ccccc1 (Cbz-Leu-Leu-[Nle]-aldehyde)	> 100 µM
CC(C1CCCC1=O)C1CCCC1=O (configuration not stated)	> 100 µM

Summary line: CCOP(=O)(OCC)OC1c2[nH]ccc2-c2cc(C(=O)OC)[nH]c2C1OC (configuration not stated) , CCRF-CEM leukemia, reported TGI = > 100 µM
